Numbers sourced from patent US20240091228A1.

- assay_info: elimination half-life of Compound 1 in mice
- condition_info: mouse, in vivo, read-out: elimination t1/2
readout_label: half-life

Exercise: # query: half-life of entry Cc1cn2c(nc1=O)O[C@H]1[C@H](O)[C@@H](CO)O[C@H]12
Key: 1 to 2 h
